Test system: LpxC enzyme
assay_name: LpxC enzyme assay (RapidFire high-throughput mass spectrometry)
Format: biochemical
experimental_conditions: concentration 25 (unit not given)
readout_label: LpxC enzyme assay rating (% inhibition at indicated concentrations)

CCCc1ccc(NC(=O)[C@H](O)[C@@H](O)C(=O)NCCCCl)cc1
B (10-30% inhibition)
CCC(C)c1ccc(NC(=O)[C@H](O)[C@@H](O)C(=O)NC)cc1 (some centres unmarked)
B (10-30% inhibition)
CCCCc1ccc(NC(=O)[C@H](O)[C@@H](O)C(=O)NC)cc1
B (10-30% inhibition)

###

tested_system: ADMP (ADAMTS-4-5) (Homo sapiens, UniProt O75173)
Construct: purchased Calbiochem PF113
Sequence (O75173 213-837): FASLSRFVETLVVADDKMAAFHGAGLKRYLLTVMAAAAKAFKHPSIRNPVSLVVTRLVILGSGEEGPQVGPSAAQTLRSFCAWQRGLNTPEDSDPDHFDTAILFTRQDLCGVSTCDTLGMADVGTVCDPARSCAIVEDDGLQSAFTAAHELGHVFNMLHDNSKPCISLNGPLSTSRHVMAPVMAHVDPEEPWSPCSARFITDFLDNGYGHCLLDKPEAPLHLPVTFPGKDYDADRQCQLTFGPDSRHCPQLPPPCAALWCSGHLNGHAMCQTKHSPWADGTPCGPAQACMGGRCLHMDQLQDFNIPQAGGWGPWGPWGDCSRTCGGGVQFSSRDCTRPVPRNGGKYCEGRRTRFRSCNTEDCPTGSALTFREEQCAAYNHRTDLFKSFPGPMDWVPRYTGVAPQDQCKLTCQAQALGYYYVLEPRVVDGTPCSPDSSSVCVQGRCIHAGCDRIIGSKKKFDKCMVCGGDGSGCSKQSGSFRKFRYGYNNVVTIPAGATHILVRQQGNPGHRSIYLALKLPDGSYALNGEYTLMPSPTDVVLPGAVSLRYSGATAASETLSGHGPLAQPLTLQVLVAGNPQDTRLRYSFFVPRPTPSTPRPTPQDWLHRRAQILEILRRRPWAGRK
assay_name: ADMP activity assay (procedures of WO00/05256)
Type: biochemical
experimental_conditions: read-out: IC50 rating (ADMP inhibitory activity)
readout_label: IC50

Given COc1ccc(N2CCN(C(=O)[C@H](O)[C@@H](O)C(=O)NCc3ccc(Cl)cc3)CC2)cc1 , state its recorded IC50. 250 to 1000 nM

Given COc1ccc(N2CCN(C(=O)[C@H](O)[C@@H](O)C(=O)N[C@@H](C)c3ccc(Br)cc3)CC2)cc1 , state its recorded IC50. < 250 nM

Given C[C@H](NC(=O)C(O)C(O)C(=O)N1CCN(c2ccc(O)cc2)CC1)c1ccc(Br)cc1 (stereo partly shown) , state its recorded IC50. 1000 to 5000 nM

Given CC(=O)c1ccc(N2CCN(C(=O)[C@H](O)[C@@H](O)C(=O)NCc3ccc(Cl)cc3)CC2)cc1 , state its recorded IC50. > 5000 nM

Cited source for all entries: patent US7553864B2
